Test system: CYP1A1
experiment.description: Induction of CYP1A1 enzyme in human cultured sebocytes, EROD assay
Assay type: cell-based
condition: cultured sebocytes, probe 7-ethoxyresorufin (8 μM)
measure: EC50 at 24 h (µM)
Numbers only; they are read as µM.

INSERT INTO results (compound, measure, assay_value) VALUES
  ('O=c1cc(-c2ccccc2)oc2ccc3ccccc3c12 [D, 3-Phenyl-1H-benzo[f]chromen-1-one, reference compound]', 'EC50 at 24 h', 1),
  ('O=c1c(-c2ccc(O)cc2)coc2ccc3ccccc3c12', 'EC50 at 24 h', 0.05),
  ('COc1ccccc1-c1coc2ccc3ccccc3c2c1=O', 'EC50 at 24 h', 0.2),
  ('O=c1c(-c2cccc(O)c2)coc2ccc3ccccc3c12', 'EC50 at 24 h', 0.25),
  ('O=c1c(-c2ccccc2)coc2ccc3ccccc3c12', 'EC50 at 24 h', 0.05);

Moving on to another compound below.
The compound COc1cccc(-c2coc3ccc4ccccc4c3c2=O)c1 showed EC50 at 24 h equal to 0.25

* * *

System: CYP1A1
experiment.description: Induction of CYP1A1 enzyme in HepG2 cells, EROD assay
Format: cell-based, human
condition: human, probe 7-ethoxyresorufin (8 μM)
measure: EC50 at 24 h
Hi, when you answer, please include the unit after the number. Thanks!

Sample answers from the record:
INSERT INTO measurements (molecule, assay_value) VALUES
  ('COc1ccccc1-c1coc2ccc3ccccc3c2c1=O [Compound F]', '2000 nM'),
  ('O=c1c(-c2cccc(O)c2)coc2ccc3ccccc3c12 [Compound H]', '1500 nM'),
  ('O=c1cc(-c2ccccc2)oc2ccc3ccccc3c12 [D, 3-Phenyl-1H-benzo[f]chromen-1-one, reference compound]', '1000 nM'),
  ('O=c1c(-c2ccc(O)cc2)coc2ccc3ccccc3c12 [Compound J]', '1500 nM'),
  ('O=c1c(-c2ccccc2)coc2ccc3ccccc3c12 [Compound B]', '1000 nM');

Test item COc1cccc(-c2coc3ccc4ccccc4c3c2=O)c1 [Compound G] ; CYP1A1; reported EC50 at 24 h was 2000 nM

* * *

System: HepG2 cells
experiment.description: MTT cytotoxicity assay in HepG2 cells after EROD
Format: cell-based, human
Toxicity threshold for assorted compounds

Sample answers from the record:
INSERT INTO results (compound, assay_value) VALUES
  ('COc1cccc(-c2coc3ccc4ccccc4c3c2=O)c1 [Compound G]', '100 µM'),
  ('O=c1c(-c2cccc(O)c2)coc2ccc3ccccc3c12 [Compound H]', '>100 µM'),
  ('O=c1c(-c2ccccc2)coc2ccc3ccccc3c12 [Compound B]', '>30 µM'),
  ('COc1ccccc1-c1coc2ccc3ccccc3c2c1=O [Compound F]', '>30 µM');

The compound O=c1c(-c2ccc(O)cc2)coc2ccc3ccccc3c12 [Compound J] showed Toxicity threshold equal to 100 µM

The compound O=c1cc(-c2ccccc2)oc2ccc3ccccc3c12 [D, 3-Phenyl-1H-benzo[f]chromen-1-one, reference compound] showed Toxicity threshold equal to >50 µM

* * *

Tested on: human sebocyte cells
experiment.description: MTT cytotoxicity assay in human cultured sebocytes after EROD
Assay type: cell-based
measure: Toxicity threshold (µM)
Numbers only; they are read as µM.

Sample answers from the record:
INSERT INTO results (compound, measure, units_text, assay_value) VALUES
  ('COc1cccc(-c2coc3ccc4ccccc4c3c2=O)c1', 'Toxicity threshold', 'µM', 30),
  ('COc1ccccc1-c1coc2ccc3ccccc3c2c1=O', 'Toxicity threshold', 'µM', 50);

The compound O=c1cc(-c2ccccc2)oc2ccc3ccccc3c12 [D, 3-Phenyl-1H-benzo[f]chromen-1-one, reference compound] showed Toxicity threshold equal to 30

* * *

System: human sebocyte cells
experiment.description: MTT cytotoxicity assay in human cultured sebocytes after EROD
Format: cell-based
Toxicity threshold for assorted compounds

Sample answers from the record:
INSERT INTO results (smiles_data, assay_value) VALUES
  ('O=c1c(-c2ccccc2)coc2ccc3ccccc3c12', '>30 µM'),
  ('O=c1c(-c2ccc(O)cc2)coc2ccc3ccccc3c12', '>30 µM');

The compound O=c1c(-c2cccc(O)c2)coc2ccc3ccccc3c12 showed Toxicity threshold equal to >30 µM
